Molecular target: Enoyl-[acyl-carrier-protein] reductase [NADH] (Mycobacterium tuberculosis)
Sequence (whole entry): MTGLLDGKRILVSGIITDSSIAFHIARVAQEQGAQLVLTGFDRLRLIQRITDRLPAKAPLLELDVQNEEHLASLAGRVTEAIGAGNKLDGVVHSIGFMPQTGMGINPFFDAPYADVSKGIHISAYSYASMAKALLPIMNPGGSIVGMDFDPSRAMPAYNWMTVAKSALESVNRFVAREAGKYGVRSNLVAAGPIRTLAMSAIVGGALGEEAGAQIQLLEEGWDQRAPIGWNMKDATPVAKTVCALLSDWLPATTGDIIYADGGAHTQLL
Experiment: Binding affinity to Mycobacterium tuberculosis InhA assessed as gibbs free energy change at 250 uM in presence of NADH by fluorescence spectroscopy
Would you mind telling me the reported deltaG of each entry?

Query string: Looking for the measured deltaG of Cc1cc(Nc2ccc(N3CCCCC3)cc2)c2cc(Cl)ccc2n1 , can you help?
Result string: -8.3 kcal/mol

Query string: Looking for the measured deltaG of Cc1cc(Nc2ccc(N3CCC(C)CC3)cc2)c2cc(Br)ccc2n1 , can you help?
Result string: -8 kcal/mol

Query string: Looking for the measured deltaG of Cc1cc(Nc2ccc(N3CCCCC3)cc2)c2cc(Br)ccc2n1 , can you help?
Result string: -8.3 kcal/mol

Query string: Looking for the measured deltaG of CSc1ccc2nc(C)cc(Nc3ccc(N4CCCCC4)cc3)c2c1 , can you help?
Result string: -8.3 kcal/mol

====

assay: Cytotoxicity against African green monkey Vero cells assessed as reduction in cell viability incubated for 72 hrs by MTT assay; format: toxicity, cell-based; conditions: chlorocebus sabaeus
RECORDED_ENDPOINT: CC50 at 72 h (µM)
Field format: number, assumed µM, no unit text.

Query string: Looking for the measured CC50 at 72 h of Cc1cc(Nc2ccc(N3CCCCC3)cc2)c2cc(Cl)ccc2n1 , can you help?
Result string: 19.2

Query string: Looking for the measured CC50 at 72 h of CSc1ccc2nc(C)cc(Nc3ccc(N4CCCCC4)cc3)c2c1 , can you help?
Result string: 11.1

Query string: Looking for the measured CC50 at 72 h of Cc1cc(Nc2ccc(N3CCC(C)CC3)cc2)c2cc(Br)ccc2n1 , can you help?
Result string: 9.7

====

biological target: Enoyl-[acyl-carrier-protein] reductase [NADH] (Mycobacterium tuberculosis, UniProt P9WGR1); assay: Binding affinity to Mycobacterium tuberculosis InhA assessed as dissociation constant at 250 uM at 30 degreeC in presence of NADH by fluorescence spectroscopy
RECORDED_ENDPOINT: Kd (µM)
Field format: number, assumed µM, no unit text.

Query string: Entry Cc1cc(Nc2ccc(N3CCCCC3)cc2)c2cc(Br)ccc2n1 , system Enoyl-[acyl-carrier-protein] reductase [NADH] (Mycobacterium tuberculosis, UniProt P9WGR1): what Kd was measured?
Result string: 1.34

====

Molecular target: Enoyl-[acyl-carrier-protein] reductase [NADH] (Mycobacterium tuberculosis)
Sequence (P9WGR1 whole entry): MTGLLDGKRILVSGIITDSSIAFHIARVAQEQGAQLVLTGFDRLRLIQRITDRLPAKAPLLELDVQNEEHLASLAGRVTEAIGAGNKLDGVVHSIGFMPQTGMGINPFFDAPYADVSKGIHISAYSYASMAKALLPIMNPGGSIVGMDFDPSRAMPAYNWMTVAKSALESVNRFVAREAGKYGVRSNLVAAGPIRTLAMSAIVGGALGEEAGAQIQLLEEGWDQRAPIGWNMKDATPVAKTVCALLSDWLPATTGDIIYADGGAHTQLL
Test: Binding affinity to Mycobacterium tuberculosis InhA assessed as dissociation constant at 250 uM at 15 degreeC in presence of NADH by fluorescence spectroscopy
RECORDED_ENDPOINT: Kd
The number alone won't do; follow it with the unit.

Query string: Looking for the measured Kd of Cc1cc(Nc2ccc(N3CCCCC3)cc2)c2cc(Br)ccc2n1 , can you help?
Result string: 280 nM

====

Would you mind telling me the reported selectivity ratio of each entry?
experiment: Selectivity index, ratio of CC50 for human HepG2 cells by MTT assay to MIC for pan-sensitive Mycobacterium tuberculosis H37Rv ATCC 27294; type: toxicity; details: read-out: Selectivity Index
Could you keep your reply to the number by itself?

Query string: Looking for the measured selectivity ratio of Cc1cc(Nc2ccc(N3CCC(C)CC3)cc2)c2cc(Br)ccc2n1 , can you help?
Result string: 7.6

Query string: Looking for the measured selectivity ratio of CSc1ccc2nc(C)cc(Nc3ccc(N4CCCCC4)cc3)c2c1 , can you help?
Result string: 14.7

====

Would you mind telling me the reported CC50 at 72 h of each entry?
experiment: Cytotoxicity against African green monkey Vero cells assessed as reduction in cell viability incubated for 72 hrs by neutral red uptake assay; format: toxicity, cell-based; conditions: chlorocebus sabaeus
Field format: number, assumed µM, no unit text.

Query string: Looking for the measured CC50 at 72 h of Cc1cc(Nc2ccc(N3CCC(C)CC3)cc2)c2cc(Br)ccc2n1 , can you help?
Result string: 6.2

Query string: Looking for the measured CC50 at 72 h of Cc1cc(Nc2ccc(N3CCCCC3)cc2)c2cc(Cl)ccc2n1 , can you help?
Result string: 11.7

Query string: Looking for the measured CC50 at 72 h of CSc1ccc2nc(C)cc(Nc3ccc(N4CCCCC4)cc3)c2c1 , can you help?
Result string: 8.5

Query string: Looking for the measured CC50 at 72 h of Cc1cc(Nc2ccc(N3CCCCC3)cc2)c2cc(Br)ccc2n1 , can you help?
Result string: 12.2

====

Target: Enoyl-[acyl-carrier-protein] reductase [NADH] (Mycobacterium tuberculosis)
Sequence (whole entry): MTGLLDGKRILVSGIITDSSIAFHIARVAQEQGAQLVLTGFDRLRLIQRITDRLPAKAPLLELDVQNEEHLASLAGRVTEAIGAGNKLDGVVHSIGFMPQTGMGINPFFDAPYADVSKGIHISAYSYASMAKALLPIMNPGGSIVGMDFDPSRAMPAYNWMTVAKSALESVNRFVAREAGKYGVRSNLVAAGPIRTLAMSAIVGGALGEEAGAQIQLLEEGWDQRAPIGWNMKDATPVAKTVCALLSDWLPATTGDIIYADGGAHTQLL
Test: Binding affinity to Mycobacterium tuberculosis InhA assessed as change in enthalpy at 250 uM in presence of NADH by fluorescence spectroscopy
RECORDED_ENDPOINT: deltaH (kcal/mol)
Field format: number, assumed kcal/mol, no unit text.

Query string: Entry Cc1cc(Nc2ccc(N3CCC(C)CC3)cc2)c2cc(Br)ccc2n1 , system Enoyl-[acyl-carrier-protein] reductase [NADH] (Mycobacterium tuberculosis): what deltaH was measured?
Result string: -5.6

Query string: Entry Cc1cc(Nc2ccc(N3CCCCC3)cc2)c2cc(Cl)ccc2n1 , system Enoyl-[acyl-carrier-protein] reductase [NADH] (Mycobacterium tuberculosis): what deltaH was measured?
Result string: -23.2

Query string: Entry CSc1ccc2nc(C)cc(Nc3ccc(N4CCCCC4)cc3)c2c1 , system Enoyl-[acyl-carrier-protein] reductase [NADH] (Mycobacterium tuberculosis): what deltaH was measured?
Result string: -25.8

Query string: Entry Cc1cc(Nc2ccc(N3CCCCC3)cc2)c2cc(Br)ccc2n1 , system Enoyl-[acyl-carrier-protein] reductase [NADH] (Mycobacterium tuberculosis): what deltaH was measured?
Result string: -18.3

====

Would you mind telling me the reported IC50 of each entry?
Target: Enoyl-[acyl-carrier-protein] reductase [NADH] (Mycobacterium tuberculosis, UniProt P9WGR1)
Sequence (P9WGR1 whole entry): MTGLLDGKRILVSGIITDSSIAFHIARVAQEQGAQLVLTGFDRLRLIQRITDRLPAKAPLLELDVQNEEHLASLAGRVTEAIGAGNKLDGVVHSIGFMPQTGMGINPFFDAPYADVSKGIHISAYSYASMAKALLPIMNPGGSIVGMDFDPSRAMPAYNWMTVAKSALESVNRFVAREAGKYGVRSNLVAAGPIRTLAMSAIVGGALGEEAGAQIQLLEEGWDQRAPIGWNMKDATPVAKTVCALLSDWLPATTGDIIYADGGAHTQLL

Query string: Looking for the measured IC50 of Cc1cc(Nc2ccc(N3CCCC3CO)cc2)c2cc(Br)ccc2n1 (stereo not given) , can you help?
Result string: > 50 µM

Query string: Looking for the measured IC50 of Cc1cc(Nc2ccc(N3CCCCC3)cc2)c2cc(F)ccc2n1 , can you help?
Result string: 38.3 µM

Query string: Looking for the measured IC50 of Cc1cc(Nc2ccc(N3CCCCC3)cc2)c2cc(Br)ccc2n1 , can you help?
Result string: 0.23 µM

Query string: Looking for the measured IC50 of CCc1cc(Nc2ccc(N3CCCCC3)cc2)c2cc(Br)ccc2n1 , can you help?
Result string: 1.54 µM

Query string: Looking for the measured IC50 of CCOC(=O)c1ccc2nc(C)cc(Nc3ccc(N4CCN(Cc5ccccc5)CC4)cc3)c2c1 , can you help?
Result string: 26.2 µM

Query string: Looking for the measured IC50 of CCOC(=O)c1ccc2nc(C)cc(Nc3ccc(N4CCC(C)CC4)cc3)c2c1 , can you help?
Result string: 10.9 µM

Query string: Looking for the measured IC50 of Cc1cc(Nc2ccc(N3CCCCC3)cc2)c2cc(C#N)ccc2n1 , can you help?
Result string: 19.6 µM

Query string: Looking for the measured IC50 of Cc1cc(Nc2ccc(N3CCC(c4ccccc4)CC3)cc2)c2cc(Br)ccc2n1 , can you help?
Result string: > 50 µM

Query string: Looking for the measured IC50 of CCOC(=O)c1ccc2nc(C)cc(Nc3ccc(CN4CCCCC4)cc3)c2c1 , can you help?
Result string: > 50 µM

Query string: Looking for the measured IC50 of CCOC(=O)c1ccc2nc(C)cc(Nc3ccc(CC)cc3)c2c1 , can you help?
Result string: 41.3 µM
